ASSAY NAME: Oral administration of a reduced dose of propranolol-o-hemi-succinate hydrochloride; plasma levels of free propranolol (Example 4)
Assay type: in vivo, beagle dogs
PARTICULARS: dog, plasma, po, 80 mg, 1 hour after dosing, 80 mg propranolol HCl or 13.4 mg hemi-succinate HCl, individual dogs, read-out: Plasma level of free propranolol
Experimental: Two beagle dogs were given an oral dose of 13.4 mg of propranolol-O-hemi-succinate hydrochloride (equivalent to 10 mg. propranolol HCl). Blood samples were obtained at regular intervals after drug administration and plasma analyzed for free propranolol. Plasma levels of free propranolol were compared to those obtained following administration of 80 mg dose of propranolol HCl.
Counter-ions that a name gives are not always drawn.
OBSERVABLE: concentration at 1 h (ng/mL)
The answer is to be given in ng/mL; state only the numeric part.

Task: Supply reported concentration at 1 h belonging to this compound: CC(C)NCC(O)COc1cccc2ccccc12 (stereo not shown) [propranolol HCl]
Output: 38

###

ASSAY NAME: Intravenous propranolol-o-hemi-succinate hydrochloride; plasma levels of unchanged ester and free propranolol (Example 5)
Type: in vivo, beagle dogs
PARTICULARS: dog, plasma, iv, 26.7 mg, 15 min; i.v. 26.7 mg; mean; read-out: Mean plasma level of unchanged propranolol-o-hemi-succinate HCl
Counter-ions that a name gives are not always drawn.
OBSERVABLE: concentration at 0.25 h (ng/mL)
The answer is to be given in ng/mL; state only the numeric part.

Task: Supply reported concentration at 0.25 h belonging to this compound: CC(C)NCC(COc1cccc2ccccc12)OC(=O)CCC(=O)O (stereo not shown) [propranolol-o-hemi-succinate HCl]
Output: 1280

###

ASSAY NAME: Intravenous administration of propranolol HCl and propranolol-o-hemi-succinate HCl; plasma levels of free propranolol (Example 3)
Type: in vivo, beagle dogs
PARTICULARS: dog, plasma, iv, 20 mg, 2 hr after dosing; i.v., 20 mg propranolol HCl or equivalent; mean; read-out: Mean plasma level of free propranolol
Where a name gives a salt, the structure may show the parent alone.
OBSERVABLE: concentration at 2 h (ng/mL)
The answer is to be given in ng/mL; state only the numeric part.

Task: Supply reported concentration at 2 h belonging to this molecule: CC(C)NCC(O)COc1cccc2ccccc12 (stereo not shown) [propranolol HCl]
Output: 145

###

ASSAY NAME: Oral propranolol-o-hemi-succinate hydrochloride; plasma levels of unchanged ester and free propranolol (Example 5)
Assay type: in vivo, beagle dogs
PARTICULARS: dog, plasma, po, 107 mg, 2 hrs, mean, read-out: Mean plasma level of unchanged propranolol-o-hemi-succinate HCl
Counter-ions that a name gives are not always drawn.
OBSERVABLE: concentration at 2 h (ng/mL)
The answer is to be given in ng/mL; state only the numeric part.

Task: Supply reported concentration at 2 h belonging to this compound: CC(C)NCC(COc1cccc2ccccc12)OC(=O)CCC(=O)O (stereo not shown) [propranolol-o-hemi-succinate HCl]
Output: 465

###

ASSAY NAME: Intravenous propranolol-o-hemi-succinate hydrochloride; plasma levels of unchanged ester and free propranolol (Example 5)
Format: in vivo, beagle dogs
PARTICULARS: dog, plasma, iv, 26.7 mg, i.v. 26.7 mg; mean; read-out: Mean AUC 0-6 hr of unchanged propranolol-o-hemi-succinate HCl
Where a name gives a salt, the structure may show the parent alone.
OBSERVABLE: AUC(0-t) at 6 h (ng·h/mL)
The answer is to be given in ng·h/mL; state only the numeric part.

Task: Supply reported AUC(0-t) at 6 h belonging to this compound: CC(C)NCC(COc1cccc2ccccc12)OC(=O)CCC(=O)O (stereo not shown) [propranolol-o-hemi-succinate HCl]
Output: 1230
